I'd be grateful if you could share measured EC50 for these entries.
Target: wild-type Choristoneura fumiferana EcR (D, E and F domains) (Choristoneura fumiferana)
Format: cell-based
Conditions: S; WT-CtEcR, 3T3 Cells

// query Give the reported EC50 for this molecule. CCC[C@H](N(NC(=O)c1ccccc1Cl)C(=O)c1cc(C)cc(C)c1)C(C)(C)C [Example 35]
// result ~1000 nM

// query Give the reported EC50 for this molecule. CCC[C@H](N(NC(=O)c1ccccc1C)C(=O)c1cc(C)cc(C)c1)C(C)(C)C [Example 33]
// result ~3300 nM

// query Give the reported EC50 for this molecule. CCC[C@H](N(NC(=O)OC(C)(C)C)C(=O)c1cc(C)cc(C)c1)C(C)(C)C [Example 48]
// result > 33000 nM

// query Give the reported EC50 for this molecule. CCC[C@H](N(NC(=O)c1cccc(OC)c1C)C(=O)c1cc(C)cc(C)c1)C(C)(C)C [Example 47]
// result ~200 nM
